Target: SMARCA2 (Homo sapiens, UniProt P51531)
Sequence (P51531 whole entry): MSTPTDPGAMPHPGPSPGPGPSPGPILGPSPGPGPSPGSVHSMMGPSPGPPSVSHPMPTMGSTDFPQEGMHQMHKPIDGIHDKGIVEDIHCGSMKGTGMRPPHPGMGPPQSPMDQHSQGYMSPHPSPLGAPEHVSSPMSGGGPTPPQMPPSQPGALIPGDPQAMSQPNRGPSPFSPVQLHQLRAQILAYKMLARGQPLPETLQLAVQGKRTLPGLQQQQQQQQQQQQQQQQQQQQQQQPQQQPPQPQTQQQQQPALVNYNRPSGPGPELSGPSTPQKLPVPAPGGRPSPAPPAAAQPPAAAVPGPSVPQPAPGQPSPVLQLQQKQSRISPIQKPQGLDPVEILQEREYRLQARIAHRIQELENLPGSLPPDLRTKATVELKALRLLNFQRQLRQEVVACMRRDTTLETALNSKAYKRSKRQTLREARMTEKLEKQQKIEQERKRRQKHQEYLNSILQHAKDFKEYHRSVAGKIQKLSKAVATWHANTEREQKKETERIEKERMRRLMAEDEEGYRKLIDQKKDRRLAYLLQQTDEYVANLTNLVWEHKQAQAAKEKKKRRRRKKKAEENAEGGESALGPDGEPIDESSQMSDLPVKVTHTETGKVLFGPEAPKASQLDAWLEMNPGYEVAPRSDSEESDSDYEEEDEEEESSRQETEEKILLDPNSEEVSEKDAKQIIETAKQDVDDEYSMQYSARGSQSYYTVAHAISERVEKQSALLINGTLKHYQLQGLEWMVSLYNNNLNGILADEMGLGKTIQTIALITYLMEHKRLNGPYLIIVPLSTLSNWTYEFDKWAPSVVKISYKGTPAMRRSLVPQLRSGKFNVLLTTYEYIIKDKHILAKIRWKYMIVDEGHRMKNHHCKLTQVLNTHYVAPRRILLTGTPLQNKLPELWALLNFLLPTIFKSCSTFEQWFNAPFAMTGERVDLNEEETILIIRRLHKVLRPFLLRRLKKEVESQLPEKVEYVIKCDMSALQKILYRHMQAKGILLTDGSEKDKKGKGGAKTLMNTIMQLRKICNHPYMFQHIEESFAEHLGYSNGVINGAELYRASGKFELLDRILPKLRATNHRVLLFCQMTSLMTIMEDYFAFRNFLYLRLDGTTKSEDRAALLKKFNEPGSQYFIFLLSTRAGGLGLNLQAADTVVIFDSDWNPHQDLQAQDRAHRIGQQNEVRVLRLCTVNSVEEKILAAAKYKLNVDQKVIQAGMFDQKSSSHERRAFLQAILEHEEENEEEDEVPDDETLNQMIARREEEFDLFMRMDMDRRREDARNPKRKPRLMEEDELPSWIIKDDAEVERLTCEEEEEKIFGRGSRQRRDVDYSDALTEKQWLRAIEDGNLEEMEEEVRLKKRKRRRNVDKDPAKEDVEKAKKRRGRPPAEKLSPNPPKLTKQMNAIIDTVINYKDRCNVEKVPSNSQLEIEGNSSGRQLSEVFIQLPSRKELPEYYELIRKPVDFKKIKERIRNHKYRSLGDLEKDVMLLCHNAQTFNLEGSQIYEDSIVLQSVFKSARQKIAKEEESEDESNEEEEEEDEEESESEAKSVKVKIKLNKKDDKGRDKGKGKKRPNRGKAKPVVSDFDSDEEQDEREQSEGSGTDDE
Experiment: MSD SMARCA2 degradation in A549 cell line
Assay type: cell-based
Set-up: endogenous in cells
Settings: A549, A549 cells, 24 h
endpoint: Dmax

• Cc1ncsc1-c1ccc(C2(NC(=O)[C@@H]3C[C@@H](O)CN3C(=O)[C@@H](NC(=O)[C@H]3CC4(C3)C[C@H](N3CCC(c5cnc(N6C7CCC6CN(c6cc(-c8ccccc8O)nnc6N)C7)nc5)CC3)C4)C(C)(C)C)CC2)cc1 (single isomer, unassigned) = > 90%
• Cc1ncsc1-c1ccc(CNC(=O)[C@@H]2C[C@@H](O)CN2C(=O)[C@@H](NC(=O)[C@H]2CC3(C2)C[C@H](N2CCC(Oc4ccc(N5C6CCC5CN(c5cc(-c7ccccc7O)nnc5N)C6)cn4)CC2)C3)C(C)(C)C)cc1 (some centres unmarked) = 50 to 70%
• Cc1ncsc1-c1ccc(CNC(=O)[C@@H]2C[C@@H](O)CN2C(=O)[C@@H](NC(=O)[C@H]2CC3(C2)C[C@H](N2CCC(c4ccc(N5C6CCC5CN(c5cc(-c7ccccc7O)nnc5N)C6)cc4)CC2)C3)C(C)(C)C)cn1 (some centres unmarked) = < 50%
• Cc1ncsc1-c1ccc(CNC(=O)[C@@H]2C[C@@H](O)CN2C(=O)[C@@H](NC(=O)N2CC3(CC(N4CCC(c5cnc(N6C7CCC6CN(c6cc(-c8ccccc8O)nnc6N)C7)nc5)CC4)C3)C2)C(C)(C)C)cc1 = > 90%
• Cc1ncsc1-c1ccc(CNC(=O)[C@@H]2C[C@@H](O)CN2C(=O)C(c2cc([C@H]3CC[C@H](N4CCC(c5cnc(N6C7CCC6CN(c6cc(-c8ccccc8O)nnc6N)C7)nc5)CC4)CC3)no2)C(C)C)cc1 (some centres unmarked) = > 90%
• Cc1nccn1-c1ccc(CNC(=O)[C@@H]2C[C@@H](O)CN2C(=O)[C@@H](NC(=O)[C@H]2CC3(C2)C[C@H](N2CCC(c4cnc(N5C6CCC5CN(c5cc(-c7ccccc7O)nnc5N)C6)nc4)CC2)C3)C(C)(C)C)cc1 (some centres unmarked) = < 50%
• Cn1nccc1-c1ccc(CNC(=O)[C@@H]2C[C@@H](O)CN2C(=O)[C@@H](NC(=O)[C@H]2CC[C@H](c3cnc(N4C5CCC4CN(c4cc(-c6ccccc6O)nnc4N)C5)nc3)CC2)C(C)(C)C)cc1 = > 90%

Proceeding to the next molecule to report its Dmax.
Q: Entry Cc1ncsc1-c1ccc(CNC(=O)[C@@H]2C[C@@H](O)CN2C(=O)[C@@H](NC(=O)C2CC3(C2)CN(C2CCN(c4cnc(N5C6CCC5CN(c5cc(-c7ccccc7O)nnc5N)C6)nc4)CC2)C3)C(C)(C)C)cc1 has what Dmax?
A: 70 to 90%

The values you see were collected from patent US12606568B2.
